Kindly state growth for each of the entries shown.
Test system: E. coli TESEC Alr+ wild-type control
test_details: growth (OD600 after 10 h); higher = more growth (less inhibition)
condition_details: compound 0.1 mM; raw OD600 reference: median of DMSO wells 0.241, cell-free background 0.041
Where a name gives a salt, the structure may show the parent alone.
Give only the figure.

Form: Entry = O=C(O)/C=C/c1ccc(Cn2ccnc2)cc1 [Ozagrel hydrochloride] | System = E. coli TESEC Alr+ wild-type control | growth = ____
0.229

Note, next up: c1ccc(C2CN3CCSC3=N2)cc1 (centres undefined) [Tetramisole hydrochloride]
0.244

Note, next up: Clc1ccccc1C(c1ccccc1)(c1ccccc1)n1ccnc1
0.0397

Note, next up: N=C(N)NC(=O)c1nc(Cl)c(N)nc1N [Amiloride hydrochloride dihydrate]
0.236

Note, next up: Cc1ccc(NC(=O)c2ccc(CN3CCN(C)CC3)cc2)cc1Nc1nccc(-c2cccnc2)n1
0.171

Note, next up: NC(CO)C(=O)NNCc1ccc(O)c(O)c1O (centres undefined) [Benserazide hydrochloride]
0.0616

Note, next up: COc1cc(NS(=O)(=O)c2ccc(N)cc2)nc(OC)n1
0.23

Note, next up: O=C(O)c1cccnc1
0.28

Note, next up: Cc1ccc(C(=O)c2ccc(CC(=O)O)n2C)cc1 [Tolmetin sodium salt dihydrate]
0.234

Data origin: the supplement of paper PMC9262897
